- measuredTarget: UniProt:O35433
- runDescription: In vitro [Ca2+] influx relative to capsaicin by Rat Vanilloid receptor (VR1) expressing CHO cells
- Format: functional, cell-based
What pEC50 was measured for each of the following?
One number for each entry, as −log10 of the molar value.

>>> numericresult("Cc1ccc(CC(CN/C(S)=N/Cc2ccc(NS(=O)(=O)C(C)C)cc2)COC(=O)C(C)(C)C)cc1C (stereo not drawn)")
6.10

Provide pEC50 for all items below, preserving their order.
1. Cc1ccc(CC(CN/C(S)=N/Cc2cccc(NS(C)(=O)=O)c2)COC(=O)C(C)(C)C)cc1C (stereo not drawn)
2. Cc1ccc(CC(CNC(=S)NCc2ccc(CNS(C)(=O)=O)cc2)COC(=O)C(C)(C)C)cc1C (stereo not drawn)
3. COc1cc(CNC(=S)NCC(COC(=O)C(C)(C)C)Cc2ccc(C)c(C)c2)ccc1O (stereo not drawn)
4. CC(=O)Nc1ccc(CNC(=S)NCC(COC(=O)C(C)(C)C)Cc2ccc(C)c(C)c2)cc1 (stereo not drawn)

1. 6.00
2. 5.77
3. 8.71
4. 6.35

Provide pEC50 for all items below, preserving their order.
1. Cc1ccc(CC(CNC(=S)NCc2ccc(NC(=O)C(C)C)cc2)COC(=O)C(C)(C)C)cc1C (stereo not drawn)
2. Cc1ccc(CC(CN/C(S)=N/Cc2ccc(NS(C)(=O)=O)cc2)COC(=O)c2ccccc2)cc1C (stereo not drawn)
3. COc1cc(C/N=C(\S)NCC(COC(=O)c2ccccc2)Cc2ccc(C(C)(C)C)cc2)ccc1NS(C)(=O)=O (stereo not drawn)

[5.94, 5.76, 6.60]

###

- measuredTarget: Transient receptor potential cation channel subfamily V member 1 (Rattus norvegicus, UniProt O35433)
- Sequence (O35433 whole entry): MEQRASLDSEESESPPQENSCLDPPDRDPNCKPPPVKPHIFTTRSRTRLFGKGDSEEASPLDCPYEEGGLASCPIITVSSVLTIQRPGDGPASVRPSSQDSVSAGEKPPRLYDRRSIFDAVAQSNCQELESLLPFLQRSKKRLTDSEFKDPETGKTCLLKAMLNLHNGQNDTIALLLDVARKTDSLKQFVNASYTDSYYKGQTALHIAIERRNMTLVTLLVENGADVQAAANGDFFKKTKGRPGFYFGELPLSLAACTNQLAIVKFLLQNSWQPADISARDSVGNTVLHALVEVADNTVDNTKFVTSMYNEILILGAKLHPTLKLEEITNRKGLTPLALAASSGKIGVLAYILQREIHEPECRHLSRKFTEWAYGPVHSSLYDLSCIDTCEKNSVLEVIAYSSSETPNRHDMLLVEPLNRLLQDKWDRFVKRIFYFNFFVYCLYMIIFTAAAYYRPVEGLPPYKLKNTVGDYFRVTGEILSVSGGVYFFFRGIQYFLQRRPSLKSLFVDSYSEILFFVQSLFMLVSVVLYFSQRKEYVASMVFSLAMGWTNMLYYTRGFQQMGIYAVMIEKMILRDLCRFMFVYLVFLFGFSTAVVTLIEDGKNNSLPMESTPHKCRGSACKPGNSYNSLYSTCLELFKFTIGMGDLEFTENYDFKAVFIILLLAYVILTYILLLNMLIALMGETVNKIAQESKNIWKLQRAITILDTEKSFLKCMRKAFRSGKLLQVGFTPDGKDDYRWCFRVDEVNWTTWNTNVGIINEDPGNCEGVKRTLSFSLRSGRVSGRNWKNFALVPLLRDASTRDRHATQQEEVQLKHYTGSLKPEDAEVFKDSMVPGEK
- runDescription: In vitro binding affinity towards Rat Vanilloid receptor 1 (VR1) by [3H]RTX displacement.
What pKi was measured for each of the following?
One number for each entry, as −log10 of the molar value.

>>> numericresult("COc1cc(C/N=C(\\S)NCC(COC(=O)c2ccccc2)Cc2ccc(C(C)(C)C)cc2)ccc1NS(C)(=O)=O (stereo not given)")
7.11

Provide pKi for all items below, preserving their order.
1. CC(C)(C)c1ccc(CC(CNC(=S)NCc2ccc(NS(C)(=O)=O)cc2)COC(=O)c2ccccc2)cc1 (stereo not given)
2. Cc1ccc(CC(CNC(=S)NCc2ccc(CNS(C)(=O)=O)cc2)COC(=O)C(C)(C)C)cc1C (stereo not given)
3. Cc1ccc(CC(CNC(=S)NCc2ccc(NC(=O)C(C)C)cc2)COC(=O)C(C)(C)C)cc1C (stereo not given)
4. Cc1ccc(CC(CN/C(S)=N/Cc2ccc(NS(=O)(=O)c3ccccc3)cc2)COC(=O)C(C)(C)C)cc1C (stereo not given)
5. CCCS(=O)(=O)Nc1ccc(C/N=C(\S)NCC(COC(=O)C(C)(C)C)Cc2ccc(C)c(C)c2)cc1 (stereo not given)

[6.62, 5.52, 5.59, 5.60, 6.50]

Provide pKi for all items below, preserving their order.
1. Cc1ccc(CC(CNC(=S)NCc2ccc(NS(C)(=O)=O)cc2)COC(=O)C(C)(C)C)cc1C (stereo not given)
2. Cc1ccc(CC(CN/C(S)=N/Cc2ccc(NS(=O)(=O)C(C)C)cc2)COC(=O)C(C)(C)C)cc1C (stereo not given)

1. 7.53
2. 6.64

Provide pKi for all items below, preserving their order.
1. CC(C)(C)C(=O)OCC(C/N=C(\S)NCc1ccc(NS(C)(=O)=O)cc1)Cc1ccc(C(C)(C)C)cc1 (stereo not given)
2. Cc1ccc(CC(CN/C(S)=N/Cc2cccc(NS(C)(=O)=O)c2)COC(=O)C(C)(C)C)cc1C (stereo not given)
3. COc1cc(C/N=C(\S)NCC(COC(=O)C(C)(C)C)Cc2ccc(C)c(C)c2)ccc1NS(C)(=O)=O (stereo not given)
4. COc1cc(CNC(=S)NCC(COC(=O)c2ccccc2)Cc2ccc(C)c(C)c2)ccc1NS(C)(=O)=O (stereo not given)
5. CC(=O)Nc1ccc(CNC(=S)NCC(COC(=O)C(C)(C)C)Cc2ccc(C)c(C)c2)cc1 (stereo not given)
6. CCS(=O)(=O)Nc1ccc(C/N=C(\S)NCC(COC(=O)C(C)(C)C)Cc2ccc(C)c(C)c2)cc1 (stereo not given)
7. Cc1ccc(CC(CNC(=S)NCc2ccc(NS(C)(=O)=O)c(F)c2)COC(=O)C(C)(C)C)cc1C (stereo not given)

1. 7.19
2. 6.45
3. 7.31
4. 6.83
5. 5.77
6. 6.97
7. 7.27

###

- measuredTarget: Transient receptor potential cation channel subfamily V member 1 (Rattus norvegicus, UniProt O35433)
- runDescription: In vitro [Ca2+] influx relative to capsaicin by Rat Vanilloid receptor (VR1) expressing CHO cells
What pEC50 was measured for each of the following?
Give bare numbers, as −log10 of the molar value.

>>> numericresult("COc1cc(CNC(=S)NCC(COC(=O)c2ccccc2)Cc2ccc(C)c(C)c2)ccc1NS(C)(=O)=O (centres undefined)")
6.78

Provide pEC50 for all items below, preserving their order.
1. COc1cc(CNC(=S)NCC(COC(=O)C(C)(C)C)Cc2ccc(C(C)(C)C)cc2)ccc1O (centres undefined)
2. COc1cc(C/N=C(\S)NCC(COC(=O)C(C)(C)C)Cc2ccc(C)c(C)c2)ccc1NS(C)(=O)=O (centres undefined)

8.55
7.66

Answer with the recorded pEC50 for the compound listed here: CC(C)(C)c1ccc(CC(CNC(=S)NCc2ccc(NS(C)(=O)=O)cc2)COC(=O)c2ccccc2)cc1 (centres undefined)
5.55

###

- measuredTarget: Transient receptor potential cation channel subfamily V member 1 (Rattus norvegicus, UniProt O35433)
- runDescription: Inhibition of capsaicin-induced [Ca2+] uptake by Rat Vanilloid receptor 1 (VR1) expressing CHO cells
- Format: cell-based
What log10 Ki was measured for each of the following?
Answers are given as log10 of Ki in µM.

Below: 4 compounds and their reported log10 Ki.
>>> numericresult("CC(C)(C)C(=O)OCC(C/N=C(\\S)NCc1ccc(NS(C)(=O)=O)cc1)Cc1ccc(C(C)(C)C)cc1 (stereo not given)")
-1.07
>>> numericresult("CCCS(=O)(=O)Nc1ccc(C/N=C(\\S)NCC(COC(=O)C(C)(C)C)Cc2ccc(C)c(C)c2)cc1 (stereo not given)")
-0.03
>>> numericresult("Cc1ccc(CC(CNC(=S)NCc2ccc(NS(C)(=O)=O)cc2)COC(=O)C(C)(C)C)cc1C (stereo not given)")
-1.17
>>> numericresult("Cc1ccc(CC(CNC(=S)NCc2ccc(NS(C)(=O)=O)c(F)c2)COC(=O)C(C)(C)C)cc1C (stereo not given)")
-2.11

Answer with the recorded log10 Ki for the compound listed here: CCS(=O)(=O)Nc1ccc(C/N=C(\S)NCC(COC(=O)C(C)(C)C)Cc2ccc(C)c(C)c2)cc1 (stereo not given)
-0.51
